This collection of values is drawn from PubChem BioAssay.

Assay Procedure: probe aNOTCH3 binding on compound microarray – biochemical, small-molecule microarray, 635/667 nm fluorescence, primary screen (AID 1120);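 also: probe is a biotin-tagged antibody raised against NOTCH3 rather than NOTCH3 protein; score merges spot fluorescence near 667 nm with spot signal to noise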
Condition Context: higher = more signal
Label no if composite z-score falls below -0.08; label yes in every other case.

Q) Reported composite z-score reaches at least -0.08 for CC1CC/C=C\[C@H]2OC34C=CCN(CCN5CCOCC5)C(=O)[C@H]3N(CCCCCO)C(=O)[C@@H]4C2C(=O)O1 (stereo partly drawn) ?
A) no

Q) Reported composite z-score reaches at least -0.08 for COc1ccccc1CN1C(=O)c2ccccc2[C@](Cc2ccccc2I)(C(=O)NC2CC2)[C@@H]1c1ccc(CO)cc1 ?
A) yes

Q) Reported composite z-score reaches at least -0.08 for CCOC(=O)N1C(c2ccc(OCCCO)cc2)=NC(C(=O)OC)N1C(=O)OCC (stereo not drawn) ?
A) yes

Q) Reported composite z-score reaches at least -0.08 for O=S(=O)(NCCCO)c1ccc(Br)cc1 ?
A) yes

Q) Reported composite z-score reaches at least -0.08 for C=C(CCCC)C(=O)CC[C@@H](OC(=O)c1ccccc1-c1ccccc1C(=O)O)c1ccc(CO)o1 ?
A) yes

Q) Reported composite z-score reaches at least -0.08 for CCOC(=O)C=Cc1cccc(OC)c1O ?
A) no

Q) Reported composite z-score reaches at least -0.08 for COc1ccc([Si](C)(C)[C@H]2[C@H](CC(=O)N3Cc4ccccc4C[C@H]3CO)O[C@@]3(C(=O)N(Cc4cccc(I)c4)c4ccccc43)[C@@H]2C)cc1 ?
A) no

----------
Tested on: wheat germ agglutinin (Triticum aestivum), Alexa647-labelled
Assay Procedure: Alexa647-WGA lectin binding to printed small molecules – biochemical, small-molecule microarray, 635/667 nm fluorescence, artefact control for SMM control-protein annotation, profiling panel (AID 1140);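 also: score merges 667 nm feature emission with signal to noise over triplicate slides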
Condition Context: WGA-A647 binding, 635 nm fluorescence, higher = more signal
I'd be grateful if you could share measured composite z-score for these entries.
A bare number is all that is needed in reply.

Q) Form entry - test system: wheat germ agglutinin (Triticum aestivum), Alexa647-labelled; read-out: composite z-score; compound: CC(=O)n1cc(C(O)C2C=CC3C(=O)N(c4ccccc4)C(=O)C3N2Nc2ccc(C#N)cc2)c2ccccc21 (stereo not given)
A) 1.38

Q) Form entry - test system: wheat germ agglutinin (Triticum aestivum), Alexa647-labelled; read-out: composite z-score; compound: CC(c1ccccc1)C(O)C1C=CC2C(=O)N(Cc3ccccc3)C(=O)C2N1n1cnnc1 (stereo not given)
A) 0.532

Q) Form entry - test system: wheat germ agglutinin (Triticum aestivum), Alexa647-labelled; read-out: composite z-score; compound: COCCOC(=O)N1C(=O)[C@@]2(c3cc(C#Cc4ccc(OC)cc4)ccc31)[C@H](c1ccc(O)cc1)N1[C@H](c3ccccc3)[C@H](c3ccccc3)OC(=O)[C@H]1[C@@H]2C(=O)N1CCN(c2ncccn2)CC1
A) 0.584

Q) Form entry - test system: wheat germ agglutinin (Triticum aestivum), Alexa647-labelled; read-out: composite z-score; compound: CCCC[C@@H]1C[C@H]1[C@@H](NC(=O)c1ccccc1)c1ccccc1
A) 0.136

Q) Form entry - test system: wheat germ agglutinin (Triticum aestivum), Alexa647-labelled; read-out: composite z-score; compound: COC(=O)[C@@]1(Cc2ccccc2)[C@H]2c3cc(C(=O)N(C)C)n(Cc4cc(F)c(F)c(F)c4)c3C[C@H]2CN1C(=O)c1ccccc1
A) 0.418

Q) Form entry - test system: wheat germ agglutinin (Triticum aestivum), Alexa647-labelled; read-out: composite z-score; compound: CC(C)[Si]1(C(C)C)O[C@@H](c2ccccc2)c2cc(-c3ccc(-c4ccc(Cl)c(Cl)c4)o3)nc(CCc3ccccc3)c21
A) -1.58

Q) Form entry - test system: wheat germ agglutinin (Triticum aestivum), Alexa647-labelled; read-out: composite z-score; compound: OCCCc1cc[n+](Cc2cccc(OC(F)(F)F)c2)cc1
A) 0.889

Q) Form entry - test system: wheat germ agglutinin (Triticum aestivum), Alexa647-labelled; read-out: composite z-score; compound: Cc1c(NC(=O)/C(C#N)=C/C=C/c2ccccc2)c(=O)n(-c2ccccc2)n1C
A) 0.343

Q) Form entry - test system: wheat germ agglutinin (Triticum aestivum), Alexa647-labelled; read-out: composite z-score; compound: CCCC[C@H]1OB(O)C[C@H]2C1=C(C)Cn1c(=O)n(-c3ccccc3)c(=O)n12
A) 0.0939

Q) Form entry - test system: wheat germ agglutinin (Triticum aestivum), Alexa647-labelled; read-out: composite z-score; compound: O=C1OCCC=C[C@H]2OC34C=CCN(CCN5CCOCC5)C(=O)[C@H]3N(CCO)C(=O)[C@@H]4C12 (stereo not given in full)
A) 0.418

Q) Form entry - test system: wheat germ agglutinin (Triticum aestivum), Alexa647-labelled; read-out: composite z-score; compound: O=C1OCCC=C[C@H]2OC34C=CCN(c5ccc6ccccc6c5)C(=O)[C@H]3N(CCCCCCO)C(=O)[C@@H]4C12 (stereo not given in full)
A) -0.451

Q) Form entry - test system: wheat germ agglutinin (Triticum aestivum), Alexa647-labelled; read-out: composite z-score; compound: COCCCNC(=O)[C@@]1(Sc2ccc(C)cc2)CC(=O)N(Cc2ccccc2)[C@@H]1c1ccc(CO)cc1
A) -0.4

Q) Form entry - test system: wheat germ agglutinin (Triticum aestivum), Alexa647-labelled; read-out: composite z-score; compound: COCCOC(=O)N1C(=O)[C@@]2(c3cc(C#CC4=CCCCC4)ccc31)[C@H](C(=O)N1CCN(c3ncccn3)CC1)[C@H]1C(=O)O[C@H](c3ccccc3)[C@H](c3ccccc3)N1[C@@H]2c1ccc(OCCO)cc1
A) 0.232

Q) Form entry - test system: wheat germ agglutinin (Triticum aestivum), Alexa647-labelled; read-out: composite z-score; compound: CCCNC(=O)[C@@]1(c2ccc([N+](=O)[O-])cc2)CC(=O)N(CC23CC4CC(CC(C4)C2)C3)[C@@H]1c1ccc(CO)cc1I
A) 0.519

Q) Form entry - test system: wheat germ agglutinin (Triticum aestivum), Alexa647-labelled; read-out: composite z-score; compound: COc1ccc([Si](C)(C)[C@H]2[C@H](CCO)O[C@@]3(C(=O)N(Cc4cccc(N5C(=O)c6cccc7cccc5c67)c4)c4ccccc43)[C@@H]2C)cc1
A) 0.563
